Tested on: CYP2C19
Assay: Pharmacokinetics of oral omeprazole (20 mg capsule, 100 µg microdose) and 5-OH-omeprazole at baseline, during fluconazole and during rifampicin
Details: human, in vivo, po, 100 ug
reported_metric: Tmax

INPUT: Give Tmax; test system CYP2C19; compound COc1ccc2[nH]c([S+]([O-])Cc3ncc(C)c(OC)c3C)nc2c1 (stereo not shown)
OUTPUT: 21.8 min
